biological target: UniProt Q13191; experiment: Cbl-b inhibition assay (Cbl-b activity assay, FRET, Biological Example 1; 100 mM NaCl, 60 nM Src kinase); assay type: biochemical; conditions: upper bound stated in text lists; read-out: IC50 values in the Cbl-b inhibition assay of Biological Example 1
Sequence (Q13191 36-427): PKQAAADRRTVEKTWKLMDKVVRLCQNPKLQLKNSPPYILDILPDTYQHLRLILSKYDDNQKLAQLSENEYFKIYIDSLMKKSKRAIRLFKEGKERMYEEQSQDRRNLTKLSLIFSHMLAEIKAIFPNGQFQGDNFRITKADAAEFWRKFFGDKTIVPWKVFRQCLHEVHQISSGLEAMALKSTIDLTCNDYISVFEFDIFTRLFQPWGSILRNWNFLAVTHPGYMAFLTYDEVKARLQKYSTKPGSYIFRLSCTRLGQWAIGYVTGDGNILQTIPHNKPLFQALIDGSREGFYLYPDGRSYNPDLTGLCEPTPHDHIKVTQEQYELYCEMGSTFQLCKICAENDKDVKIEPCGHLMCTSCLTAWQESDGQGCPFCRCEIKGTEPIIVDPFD
Item-by-item account of IC50

IN: Entry under review: C[C@H](Cc1nncn1C)c1cccc(NC(=O)c2cc(C(=O)N3C[C@H](O)[C@@H](F)C3)ccn2)c1 [Compound 235] . Reported IC50?
OUT: ≤ 10000 nM

IN: Entry under review: Cc1conc1CC1(c2cccc(NC(=O)c3cc(CN4CCC5(CC5)C4)cc(C4CC4)n3)c2)COC1 [Compound 500] . Reported IC50?
OUT: ≤ 100 nM

IN: Entry under review: C[C@H](Cc1nncn1C)c1cccc(NC(=O)c2cc(C(=O)N3CCC4(COC4)C3)ccn2)c1 [Compound 233] . Reported IC50?
OUT: ≤ 10000 nM

IN: Entry under review: Cc1nc2c(o1)CCN(Cc1cc3c(c(C(F)(F)F)c1)CN(c1cccc(C4(Cc5nncn5C)COC4)c1)C3=O)C2 [Example 649] . Reported IC50?
OUT: ≤ 100 nM

IN: Entry under review: C[C@H](Cc1nncn1C)c1cccc(NC(=O)c2cc(C(=O)N3CC[C@](C)(N)C3)ccn2)c1 [Compound 229] . Reported IC50?
OUT: ≤ 10000 nM

IN: Entry under review: Cc1cc(C(=O)Nc2cccc([C@H](C)Sc3nncn3C)c2)ncc1Cl [Compound 34] . Reported IC50?
OUT: ≤ 500 nM

====

system: anergic human T-cells; test: Anergic T-cell activation assessed by IFNγ secretion (ionomycin-induced anergy); type: cell-based; details: 0.37 μM, anergic T-cells re-challenged with anti-CD3 and anti-CD28 for 24 hours, read-out: IFNγ Fold change from baseline
readout label: fold induction at 0.37 µM

Take a look at these entries with their results.
compound | measured target | fold induction at 0.37 µM
Cn1cnnc1CC1(c2cccc(N3Cc4c(cc(CN5CCC6(CC6)C5)cc4C(F)(F)F)C3=O)c2)COC1 [Compound 520] | anergic human T-cells | ≤ 2.5
Cc1cc2c(c(C3CC3)n1)CN(c1cccc([C@H](C)Cc3nncn3C)c1)C2=O [Compound 372] | anergic human T-cells | ≤ 2.5

IN: Entry under review: C[C@H](c1cc2c(c(C(F)(F)F)c1)CN(c1cccc(C3(Cc4nncn4C)COC3)c1)C2=O)N1CC[C@H](F)C1 [Compound 413] . Reported fold induction at 0.37 µM?
OUT: 2.51 to 4

IN: Entry under review: C[C@H](Cc1nncn1C)c1ccnc(NC(=O)c2cccc(C(F)(F)F)n2)c1 [Compound 302] . Reported fold induction at 0.37 µM?
OUT: ≤ 2.5

IN: Entry under review: Cn1cnnc1CC1(c2cccc(NC(=O)c3nc4c(C(F)(F)F)cccc4[nH]3)c2)COC1 [Compound 335] . Reported fold induction at 0.37 µM?
OUT: ≤ 2.5

IN: Entry under review: Cn1cnnc1CC1(c2cccc(N3Cc4c(cc(CN5CC(F)C5)cc4C(F)(F)F)C3=O)c2)COC1 [Compound 415] . Reported fold induction at 0.37 µM?
OUT: 2.51 to 4

IN: Entry under review: C[C@H](Cc1nncn1C)c1cccc(N2Cc3c(cc(CN4CC(O)C4)cc3C(F)(F)F)C2=O)c1 [Compound 393] . Reported fold induction at 0.37 µM?
OUT: ≤ 2.5
